system: ABUTH; assay: Post-emergence herbicidal effect, greenhouse pot test; type: in vivo, Abutilon theophrasti; details: Abutilon theophrasti, 504 h, 320 g/ha, visual rating about 3 weeks after treatment, read-out: Post-emergence effect against ABUTH
Examples of compounds with documented pest or weed control at 320 g/ha follow.
observedProperty: pest or weed control at 320 g/ha (%)

{"compound": "COC(Oc1nn(-c2ncccc2F)c(-c2cncc(F)c2)c1C1CC1)C(=O)O (stereo not drawn)", "measuredTarget": "ABUTH", "observedProperty": "pest or weed control at 320 g/ha", "measuredResult": 90}
{"compound": "COC(Oc1nn(-c2ccccc2F)c(-c2ccc(F)nc2)c1Br)C(=O)O (stereo not drawn)", "measuredTarget": "ABUTH", "observedProperty": "pest or weed control at 320 g/ha", "measuredResult": 80}
{"compound": "CCOC(=O)C(OC)Oc1nn(-c2ncccc2F)c(-c2cncc(F)c2)c1C1CC1 (stereo not drawn)", "measuredTarget": "ABUTH", "observedProperty": "pest or weed control at 320 g/ha", "measuredResult": 90}
{"compound": "COC(=O)C(OC)Oc1nn(-c2cc(F)ccc2F)c(-c2cncc(F)c2)c1I (stereo not drawn)", "measuredTarget": "ABUTH", "observedProperty": "pest or weed control at 320 g/ha", "measuredResult": 100}
{"compound": "COC(=O)C(OC)Oc1nn(-c2ncccc2F)c(-c2ccc(F)nc2)c1C1CC1 (stereo not drawn)", "measuredTarget": "ABUTH", "observedProperty": "pest or weed control at 320 g/ha", "measuredResult": 90}
{"compound": "COC(=O)C(OC)Oc1nn(-c2ccccc2)c(-c2ccc(F)nc2)c1Cl (stereo not drawn)", "measuredTarget": "ABUTH", "observedProperty": "pest or weed control at 320 g/ha", "measuredResult": 90}
{"compound": "CCOC(=O)C(OC)Oc1nn(-c2cnccn2)c(-c2ccc(F)nc2)c1Br (stereo not drawn)", "measuredTarget": "ABUTH", "observedProperty": "pest or weed control at 320 g/ha", "measuredResult": 90}
{"compound": "COC(=O)C(OC)Oc1nn(-c2ccccc2)c(-c2ccc(F)nc2)c1Br (stereo not drawn)", "measuredTarget": "ABUTH", "observedProperty": "pest or weed control at 320 g/ha", "measuredResult": 90}
{"compound": "COC(=O)C(OC)Oc1nn(-c2ncccc2F)c(-c2ccc(F)nc2)c1I (stereo not drawn)", "measuredTarget": "ABUTH", "observedProperty": "pest or weed control at 320 g/ha", "measuredResult": 90}
{"compound": "CCOC(=O)C(OC)Oc1nn(-c2cc(F)ccc2F)c(-c2cncc(F)c2)c1C1CC1 (stereo not drawn)", "measuredTarget": "ABUTH", "observedProperty": "pest or weed control at 320 g/ha", "measuredResult": 90}
{"compound": "CCOC(=O)C(OCC)Oc1nn(-c2ccccc2F)c(-c2ccc(F)nc2)c1Cl (stereo not drawn)", "measuredTarget": "ABUTH", "observedProperty": "pest or weed control at 320 g/ha", "measuredResult": 90}
{"compound": "COC(=O)C(OC)Oc1nn(-c2ncccc2F)c(-c2cncc(F)c2)c1Br (stereo not drawn)", "measuredTarget": "ABUTH", "observedProperty": "pest or weed control at 320 g/ha", "measuredResult": 80}
{"compound": "COC(=O)C(OC)Oc1nn(-c2ccccc2F)c(-c2ccc(F)nc2)c1C1CC1 (stereo not drawn)", "measuredTarget": "ABUTH", "observedProperty": "pest or weed control at 320 g/ha", "measuredResult": 90}
{"compound": "COC(Oc1nn(-c2ncccc2F)c(-c2ccc(F)nc2)c1C1CC1)C(=O)O (stereo not drawn)", "measuredTarget": "ABUTH", "observedProperty": "pest or weed control at 320 g/ha", "measuredResult": 80}
{"compound": "COC(=O)C(OC)Oc1nn(-c2cc(F)ccc2F)c(-c2cncc(F)c2)c1Br (stereo not drawn)", "measuredTarget": "ABUTH", "observedProperty": "pest or weed control at 320 g/ha", "measuredResult": 90}
{"compound": "COC(Oc1nn(-c2cc(F)ccc2F)c(-c2cncc(F)c2)c1Br)C(=O)O (stereo not drawn)", "measuredTarget": "ABUTH", "observedProperty": "pest or weed control at 320 g/ha", "measuredResult": 90}
{"compound": "COC(=O)C(OC)Oc1nn(-c2cc(F)ccc2F)c(-c2cncc(F)c2)c1C1CC1 (stereo not drawn)", "measuredTarget": "ABUTH", "observedProperty": "pest or weed control at 320 g/ha", "measuredResult": 90}
{"compound": "COC(=O)C(OC)Oc1nn(-c2ncccc2F)c(-c2ccc(F)nc2)c1Cl (stereo not drawn)", "measuredTarget": "ABUTH", "observedProperty": "pest or weed control at 320 g/ha", "measuredResult": 80}
{"compound": "CCOC(=O)C(OC)Oc1nn(-c2ncccc2F)c(-c2ccc(F)nc2)c1C1CC1 (stereo not drawn)", "measuredTarget": "ABUTH", "observedProperty": "pest or weed control at 320 g/ha", "measuredResult": 80}
{"compound": "COC(Oc1nn(-c2cc(F)ccc2F)c(-c2cncc(F)c2)c1C1CC1)C(=O)O (stereo not drawn)", "measuredTarget": "ABUTH", "observedProperty": "pest or weed control at 320 g/ha", "measuredResult": 90}
{"compound": "COC(=O)C(OC)Oc1nn(-c2ncccc2F)c(-c2ccc(F)nc2)c1C(F)(F)F (stereo not drawn)", "measuredTarget": "ABUTH", "observedProperty": "pest or weed control at 320 g/ha", "measuredResult": 90}
{"compound": "CCOC(=O)C(OC)Oc1nn(-c2cnccn2)c(-c2ccc(F)nc2)c1Cl (stereo not drawn)", "measuredTarget": "ABUTH", "observedProperty": "pest or weed control at 320 g/ha", "measuredResult": 80}
{"compound": "CCOC(=O)C(OC)Oc1nn(-c2ncccc2F)c(-c2ccc(F)nc2)c1C(F)(F)F (stereo not drawn)", "measuredTarget": "ABUTH", "observedProperty": "pest or weed control at 320 g/ha", "measuredResult": 90}
{"compound": "COC(=O)C(OC)Oc1nn(-c2ncccc2F)c(-c2cncc(F)c2)c1I (stereo not drawn)", "measuredTarget": "ABUTH", "observedProperty": "pest or weed control at 320 g/ha", "measuredResult": 90}
{"compound": "CCOC(=O)C(OC)Oc1nn(-c2ncccc2F)c(-c2ccc(F)nc2)c1Cl (stereo not drawn)", "measuredTarget": "ABUTH", "observedProperty": "pest or weed control at 320 g/ha", "measuredResult": 90}
{"compound": "CCOC(Oc1nn(-c2ccccc2F)c(-c2ccc(F)nc2)c1Br)C(=O)OCCC(=O)OC (single isomer, unassigned) [Example I-63]", "measuredTarget": "ABUTH", "observedProperty": "pest or weed control at 320 g/ha", "measuredResult": 90}
{"compound": "CCOC(=O)C(OC)Oc1nn(-c2ncccc2F)c(-c2ccc(F)nc2)c1Br (stereo not drawn)", "measuredTarget": "ABUTH", "observedProperty": "pest or weed control at 320 g/ha", "measuredResult": 90}
{"compound": "CCOC(Oc1nn(-c2ccccc2F)c(-c2ccc(F)nc2)c1Br)C(=O)OCCC(=O)OC (single isomer, unassigned) [Example I-59]", "measuredTarget": "ABUTH", "observedProperty": "pest or weed control at 320 g/ha", "measuredResult": 90}
{"compound": "COC(Oc1nn(-c2ccccc2F)c(-c2ccc(F)nc2)c1C1CC1)C(=O)O (stereo not drawn)", "measuredTarget": "ABUTH", "observedProperty": "pest or weed control at 320 g/ha", "measuredResult": 90}
{"compound": "COC(Oc1nn(-c2cnccn2)c(-c2ccc(F)nc2)c1Cl)C(=O)O (stereo not drawn)", "measuredTarget": "ABUTH", "observedProperty": "pest or weed control at 320 g/ha", "measuredResult": 80}
